Overview of reported AC50 across a group of compounds:
target: Replicative DNA helicase DnaB (Mycobacterium tuberculosis, UniProt P9WMR3); test: DnaB intein splicing inhibitors, dose response, biochemical, cell-free fluorescence (AID 449749); type: functional
Sequence (P9WMR3 1-399, added parts left off): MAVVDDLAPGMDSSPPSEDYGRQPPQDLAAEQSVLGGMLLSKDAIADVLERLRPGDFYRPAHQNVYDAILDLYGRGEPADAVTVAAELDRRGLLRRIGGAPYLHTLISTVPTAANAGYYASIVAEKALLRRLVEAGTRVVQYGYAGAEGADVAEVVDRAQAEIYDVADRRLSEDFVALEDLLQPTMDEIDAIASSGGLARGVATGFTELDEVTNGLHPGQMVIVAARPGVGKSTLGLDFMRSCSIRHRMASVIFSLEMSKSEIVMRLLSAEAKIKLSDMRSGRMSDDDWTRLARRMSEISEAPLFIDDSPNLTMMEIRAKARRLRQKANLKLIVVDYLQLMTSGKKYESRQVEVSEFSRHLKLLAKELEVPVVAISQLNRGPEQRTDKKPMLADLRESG
Activity calls are given as the source filed them. Cut-off read from the data, not from the text of the source: actives have a measured AC50 and inactives only a lower limit.
endpoint name: AC50

compound="N#CC1=C(N)Oc2[nH]nc(-c3ccccc3)c2C1c1ccncc1 (stereo not drawn)" endpoint_name=AC50 experimental_value="12.3 µM (active)"
compound=Cn1c2c(c(=O)n(C)c1=O)[C@@]1(C(=O)Nc3ccccc31)C(C#N)=C(N)O2 endpoint_name=AC50 experimental_value="34.1 µM (inconclusive)"
compound=O=C1NCN(c2ccccc2)C12CCN(CCCC(c1ccc(F)cc1)c1ccc(F)cc1)CC2 endpoint_name=AC50 experimental_value="9.69 µM (active)"
compound=O=C1C(Nc2ccc(O)cc2)=C/C(=N/S(=O)(=O)c2cccs2)c2ccccc21 endpoint_name=AC50 experimental_value="0.128 µM (active)"
compound="C=CCN1C(=O)NC(c2ccc(OC)cc2)(C(F)(F)F)S/C1=C(\\C#N)c1nnc(N2CCOCC2)n1-c1ccccc1 (stereo not drawn)" endpoint_name=AC50 experimental_value="6.76 µM (active)"
compound="CC1CC(=O)c2c(cc3c(-c4c(O)cc(O)c5c(O)c6c(cc45)OC(C)CC6=O)c(O)cc(O)c3c2O)O1 (stereo not drawn)" endpoint_name=AC50 experimental_value="1.78 µM (active)"
compound=O=C(c1ccncc1)N(c1ccc2oc3c(c2c1)CCCC3)S(=O)(=O)c1ccc(F)cc1 endpoint_name=AC50 experimental_value="2.09 µM (active)"
compound=O=C(C1=C(c2ccccc2)C(=O)c2ccccc2C1=O)c1ccccc1 endpoint_name=AC50 experimental_value="8.2 µM (active)"

Value source: ChEMBL document CHEMBL1201862
